Data provenance: patent US20120045393A1

# EXPERIMENTAL_SYSTEM: T1, LHRH binding sites on EFO-27 human ovarian cancer cells (human)
# T1 chain: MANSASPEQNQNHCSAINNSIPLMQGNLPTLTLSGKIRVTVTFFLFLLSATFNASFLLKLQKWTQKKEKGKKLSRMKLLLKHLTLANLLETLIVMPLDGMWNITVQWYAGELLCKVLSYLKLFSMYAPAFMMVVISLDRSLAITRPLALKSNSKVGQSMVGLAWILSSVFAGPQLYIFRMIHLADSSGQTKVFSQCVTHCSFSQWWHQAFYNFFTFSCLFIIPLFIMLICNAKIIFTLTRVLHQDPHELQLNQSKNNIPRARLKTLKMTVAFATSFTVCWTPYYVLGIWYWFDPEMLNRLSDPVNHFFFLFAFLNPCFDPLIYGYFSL
# TEST_DETAILS: competition with [125I-Tyr8]BRU-2477 on EFO-27 cells
pEC50: −log10 of the molar value. Non-standard residues stand in square brackets, D forms with d. Primed or numbered codes have the meaning given here. DO3A10CM(3) = metal chelator group attached at the N-terminus (X in table rows); Bpa = N[C@@H](Cc1ccc(C(=O)c2ccccc2)cc1)C(=O)O; azaGly = NNC(=O)O
VALUE_TYPE: pEC50

Reference set (2 entries):
# BINDER, VALUE_TYPE, MEASURED
rows = [
    ("FHWSHXWXPX (DO3A10CM on N-terminus; AA6 Darg; AA8 Bpa4; AA10 azaGly-NH2, AA1 Phe) [BRU-2735]", "pEC50", 5.94),
    ("{DO3A10CM(3)}-GPHWSH[dR]W[Bpa]P[azaGly]-NH2 (AA1 Pro) [BRU-2667]", "pEC50", 5.14),
]

[A] XFWSHXWXPX (DO3A10CM on N-terminus; AA1 Sar; AA6 Darg; AA8 Bpa4; AA10 azaGly-NH2, AA2 Phe) [BRU-2738]
[B] RRWSHXWXPX (DO3A10CM on N-terminus; AA6 Darg; AA8 Bpa4; AA10 azaGly-NH2, AA1 Arg, AA2 Arg) [BRU-3050]
Asked: Between item A and item B , which reported pEC50 is smaller? Pick one; state its label.
Given back: A
(A: 5.91, B: 6.51)
